Recorded IC50 by entry
- target or system: human full-length MKNK1 (Homo sapiens, UniProt Q9BUB5, T385D)
- Construct: GST (N)
- Sequence (Q9BUB5 1-424 isoform Q9BUB5-2 T344D): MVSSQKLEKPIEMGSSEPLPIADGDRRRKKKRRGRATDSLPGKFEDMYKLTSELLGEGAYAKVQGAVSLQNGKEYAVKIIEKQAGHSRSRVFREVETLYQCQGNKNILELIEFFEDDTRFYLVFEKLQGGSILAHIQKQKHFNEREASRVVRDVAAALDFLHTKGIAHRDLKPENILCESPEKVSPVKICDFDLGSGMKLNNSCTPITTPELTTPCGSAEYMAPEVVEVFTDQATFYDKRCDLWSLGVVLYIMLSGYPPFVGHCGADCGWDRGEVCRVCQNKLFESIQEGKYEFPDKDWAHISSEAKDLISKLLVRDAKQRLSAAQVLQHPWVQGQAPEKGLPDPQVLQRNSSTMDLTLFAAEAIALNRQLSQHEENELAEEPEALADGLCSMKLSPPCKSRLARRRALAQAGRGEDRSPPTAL
- protocol summary: MKNK1 kinase high ATP assay (TR-FRET)
- details: high ATP (2 mM), after preincubation with MKNK1; compounds of the present invention (Table 1a)
measured property: IC50 (nM)

INSERT INTO assay_data (compound, target_or_system, measured_property, measured_value) VALUES
  ('COCC1(OC)CCc2c(sc3ncnc(Nc4cc5cn[nH]c5cc4C)c23)C1 (single isomer, unassigned) [Example 40]', 'human full-length MKNK1 (Homo sapiens, UniProt Q9BUB5, T385D)', 'IC50', 487),
  ('COc1cc2[nH]ncc2cc1Nc1ncnc2sc3c(c12)CC[C@](C)(C(=O)N1CCC1)C3', 'human full-length MKNK1 (Homo sapiens, UniProt Q9BUB5, T385D)', 'IC50', 3.7),
  ('CC(C)OC(=O)NCC1CCc2c(sc3ncnc(Nc4ccc5[nH]ncc5c4)c23)C1 (racemic)', 'human full-length MKNK1 (Homo sapiens, UniProt Q9BUB5, T385D)', 'IC50', 30.2),
  ('COc1cc2[nH]ncc2cc1Nc1ncnc2sc3c(c12)CCC1(C3)OCCO1', 'human full-length MKNK1 (Homo sapiens, UniProt Q9BUB5, T385D)', 'IC50', 4.8);
